Biological target: T1, HER2-ECD (human epidermal growth factor receptor 2, extracellular domain) (Homo sapiens, UniProt P04626)
T1 construct: also called HER-ECD
Assay: ELISA
Conditions: one partner purified
parameter: binding result

Field: example entries. Status: answers known.
GH2-24 scFv (scFv, V domains shown, source: E. coli ER2738, secreted, in filtered culture supernatant) VH: EVQLVESGGGLVQPGGSLRLSCAASGFTIDNGSIHWVRQAPGKGLEWVAFIGPSGGYTFYADSVKGRFTISADTSKNTAYLQMNSLRAEDTAVYYCARFGWHNVDNMDYWGQGTLVTVSS VL: DIQMTQSPSSLSASVGDRVTITCRASQDVGWGVAWYQQKPGKAPKLLISSTRSLYSGVPSRFSGSGSGTDFTLTISSLQPEDFATYYCQQYYNWPLTFGQGTKVEIK; binds
GH2-55 scFv (scFv, V domains shown, source: E. coli ER2738, secreted, in filtered culture supernatant) VH: EVQLVESGGGLVQPGGSLRLSCAASGFTIDGFSIHWVRQAPGKGLEWVAGIGPYGGYTSYADSVKGRFTISADTSKNTAYLQMNSLRAEDTAVYYCARFDIWHNFGMDYWGQGTLVTVSS VL: DIQMTQSPSSLSASVGDRVTITCRASQDVDGNVAWYQQKPGKAPKLLISSAGSLYSGVPSRFSGSGSGTDFTLTISSLQPEDFATYYCQQSWSWPLTFGQGTKVEIK; binds
GH2-11 scFv (scFv, V domains shown, source: E. coli ER2738, secreted, in filtered culture supernatant) VH: EVQLVESGGGLVQPGGSLRLSCAASGFTINDWGIHWVRQAPGKGLEWVAGIGPYGGYTSYADSVRGRFTISADTSKNTAYLQMNSLRAEDTAVYYCARFVNWDFYGMDYWGQGTLVTVSS VL: DIQMTQSPSSLSASVGDRVTITCRASQDVGDGVAWYQQKPGKAPKLLIYSAGWLYSGVPSRFSGSGSGTDFTLTISSLQPEDFATYYCQQYYSYPITFGQGTKVEIK; binds
GH2-102 scFv (scFv, V domains shown, source: E. coli ER2738, secreted, in filtered culture supernatant) VH: EVQLVESGGGLVQPGGSLRLSCAASGFTINGGGIHWVRQAPGKGLEWVASIGPYGGYTSYADSVKGRFTISADTSKNTAYLQMNSLRAGDTAVYYCARFGHHYDGHMDYWGQGTLVTVSS VL: DIQMTQSPSSLSASVGDRVTITCRASQDVGSNVAWYQQKPGKAPKLLIYGAPYLYSGVPSRFSGSGSGTDFTLTISSLQPEDFATYYCQQYYNWPLTFGQGTKVEIK; binds
GH2-8 scFv (scFv, V domains shown, source: E. coli ER2738, secreted, in filtered culture supernatant) VH: GVQLVESGGGLVQPGGSLRLSCAASGFTIGSSGIHWVRQAPGKGLEWVAGIWPYWGSTYYADSVKGRFTISADTSKNTAYLQMNSLRAEDTAVYYCARFGVGYHYYMDYWGQGTLVTVSS VL: DIQMTQSPSSLSASVGDRVTITCRASQDVGWWVAWYQQKPGKAPKLLISGATGLYSGVPSRFSGSGSGTDFTLTISSLQPEDFATYYCQQSWDSPITFGQGTKVEIK; binds
GH2-103 scFv (scFv, V domains shown, source: E. coli ER2738, secreted, in filtered culture supernatant) VH: EVQLVESGGGLVQPGGSLRLSCAASGFTIDEYGIHWVRQAPGKGLEWVAFIGPYWGYTSYADSVKGRFTISADTSKNTAYLQMNSLRAEDTAVYYCARFGHLHDGLMDYWGQGTLVTVSS VL: DIQMTQSPSSLSASVGDRVTITCRASQDVFSGVAWYQQKPGKAPKLLISGTPFLYSGVPSRFSGSGSGTDFTLTISSLQPEDFATYYCQQYYNWPITFGQGTKVEIK; binds
GH2-40 scFv (scFv, V domains shown, source: E. coli ER2738, secreted, in filtered culture supernatant) VH: EVQLVESGGGLVQPGGSLRLSCAASGFTINSWGIHWVRQAPGKGLEWVAWIGPYWGFTSYADSVKGRFTISADTSKNTAYLQMNSLRAEDTAVYYCARFDGHFDGVMDYWGQGTLVTVSS VL: DIQMTQSPSSLSASVGDRVTITCRASQDVNNGVAWYQQKPGKAPKLLISGTPWLYSGVPSRFSGSGSGTDFTLTISSLQPEDFATYYCQQYFDWPLTFGQGTKVEIK; binds
GH2-75 scFv (scFv, V domains shown, also called scFv(GH2-75); source: E. coli ER2738, secreted, in filtered culture supernatant) VH: EVQLVESGGGLVQPGGSLRLSCAASGSTIGNSGIHWVRQAPGKGLEWVAYIGPYGGYTSYADSVKGRFTISADTSKNTAYLQMNSLRAEDTAVYYCARFDDYHWDGMDYWGQGTLVTVSS VL: DIQMTQSPSSLSASVGDRVIITCRASQDVSGYVAWYQQKPGKAPKLLIYSSGVPSRFSGSGSGTDFTLTISSLQPEDFATYYCQQYYNWPVTFGQGTKVEIK; binds

Here are 2 binders. What values of binding result were reported for them?
1. GH2-31 scFv (scFv, V domains shown, source: E. coli ER2738, secreted, in filtered culture supernatant) VH: EVQLVESGGGLVQPGGSLRLSCAASGFTINNFGIHWVRQAPGKGLEWVASIGPFWGYTSYADSVKGRFTISADTSKNTAYLQMNSLRAEDTAVYYCARFGNDYDGVMDYWGQGTLVTVSS VL: DIQMTQSPSSLSASVGDRVTITCRASQDVSWGVAWYQQKPGKAPKLLIYSPPWLYSGVPSRFSGSGSGTDFTLTISSLQPEDFATYYCQQYYNWPITFGQGTKVEIK
2. GH2-4 scFv (scFv, V domains shown, source: E. coli ER2738, secreted, in filtered culture supernatant) VH: EVQLVESGGGLVQPGGSLRLSCAASGFTINSGSIHWVRQAPGKGLEWVAFIGPFGGYTSYADSVKGRFTISADTSKNTAYLQMNSLRAEDTAVYYCARFGWNDYDFMDYWGQGTLVTVSS VL: DIQMTQSPSSLSASVGDRVTITCRASQDVFGGVAWYQQKPGKAPKLLIYSASFLYSGVPSRFSGSGSGTDFTLTISSLQPEDFATYYCQQYFDWPITFGQGTKVEIK

["binds", "binds"]
